system: SF-268; assay: NCI tumour cell line growth inhibition, 48 h
Calls of active or inactive are those of the source. Cut-off read from the data, not from the text of the source: active = GI50 up to about 1.1 µM and inactive = higher.

# Molecule, Target Or Test System, GI50
rows = [
    ("N/C(=N\\NC(=O)c1nc2ccccc2s1)c1ccccn1", "SF-268", "6.87 µM (inactive)"),
    ("CCOC(=O)N/N=C(/N)Cc1ccc(Cl)cc1", "SF-268", "> 100 µM (inactive)"),
    ("COC(=O)C1CC2(CC3=C1CCCC3)OCCO2 (stereo not given)", "SF-268", "> 100 µM (inactive)"),
    ("CCCc1c(C(=O)OCC)[nH]c(-c2ccc(-c3[nH]c(C(=O)OCC)c(CCC)c3C(=O)OCC)s2)c1C(=O)OCC", "SF-268", "26.9 µM (inactive)"),
    ("CCOC(=O)/C=C(\\C(=O)OCC)n1cnc2c(N)ncnc21", "SF-268", "15.3 µM (inactive)"),
    ("COc1ccccc1/C=N/Nc1nnc2c3ccccc3c3ncccc3c2n1", "SF-268", "29.9 µM (inactive)"),
    ("O[C@]12c3ccccc3C1CCCCC2N1CCOCC1 (stereo not given in full)", "SF-268", "> 100 µM (inactive)"),
    ("COC(=O)c1ccc2c(c1)CC1(C2)Cc2cc3c(cc2C1)CCC3", "SF-268", "> 100 µM (inactive)"),
    ("CCOC(=O)CCC(NC(=O)c1ccc(Nc2nc3ccccc3n3cccc23)cc1)C(=O)OCC (stereo not given)", "SF-268", "37.8 µM (inactive)"),
    ("COc1ccc(N2C(=O)CC(Cl)C2=O)cc1 (stereo not given)", "SF-268", "> 100 µM (inactive)"),
]
